# SUBJECT OF TEST: soybean PPO
# EXPERIMENT SUMMARY: PPO enzyme assay, plant plastid extract
# CONDITION DESCRIPTION: 3 μM protogen, 30° C., read-out: S-3100 IC50
READOUT LABEL: IC50 (nM)
Quick reminder: number only, in nM, skip the unit.

Inquiry: Fill in the blank: the reported IC50 of CCOC(=O)COc1ncccc1Oc1cc(-n2c(=O)cc(C(F)(F)F)n(C)c2=O)c(F)cc1Cl is ____.
Reply text: 4

---

# SUBJECT OF TEST: R2N30
# EXPERIMENT SUMMARY: PPO enzyme assay, bacterial extract
# CONDITION DESCRIPTION: read-out: S-3100 IC50; bacterial extract; 3 μM protogen; 37° C.
READOUT LABEL: IC50 (nM)
Quick reminder: number only, in nM, skip the unit.

Inquiry: Fill in the blank: the reported IC50 of CCOC(=O)COc1ncccc1Oc1cc(-n2c(=O)cc(C(F)(F)F)n(C)c2=O)c(F)cc1Cl [S-3100] is ____.
Reply text: 20

---

# SUBJECT OF TEST: E. coli HemG (Escherichia coli, UniProt P0ACB4)
# Sequence (P0ACB4 whole entry): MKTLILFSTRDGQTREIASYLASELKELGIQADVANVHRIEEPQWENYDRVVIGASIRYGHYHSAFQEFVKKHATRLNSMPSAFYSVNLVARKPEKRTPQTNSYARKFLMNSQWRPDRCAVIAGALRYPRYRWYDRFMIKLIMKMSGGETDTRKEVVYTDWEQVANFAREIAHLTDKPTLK
READOUT LABEL: IC50

Inquiry: Fill in the blank: the reported IC50 of CCOC(=O)COc1ncccc1Oc1cc(-n2c(=O)cc(C(F)(F)F)n(C)c2=O)c(F)cc1Cl [S-3100] is ____.
Reply text: > 100 µM
